Each item that follows carries a reported log10 of IC50.
- tested target: melittin (Apis mellifera)
- Sequence (P01501 44-69 limits assumed): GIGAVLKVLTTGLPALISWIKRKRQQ
- experiment summary: cell-based
- setup conditions: read-out: IC50, inhibition of melittin (converted)
Recall that a logarithmic scale is used here: each number is log10 of IC50 in µM.

# count of solved cases: 6
substance: Ac-FIIYCE-NH2 [Ac-FIIYCE-NH2]
log10 of IC50: 0.75
--
substance: Ac-IVILLS-NH2 [Ac-IVILLS-NH2]
log10 of IC50: 1.33
--
substance: Ac-IVIFFY-NH2 [Ac-IVIFFY-NH2]
log10 of IC50: 1.40
--
substance: Ac-IVIFFL-NH2 [Ac-IVIFFL-NH2]
log10 of IC50: 2.15
--
substance: Ac-IVILTL-NH2 [Ac-IVILTL-NH2]
log10 of IC50: 1.15
--
substance: Ac-IVIFFV-NH2 [Ac-IVIFFV-NH2]
log10 of IC50: 1.59

query: Requested field: log10 of IC50. Item: Ac-IVILTV-NH2 [Ac-IVILTV-NH2]
result: 1.48

query: Same again, this time with Ac-FIIWCE-NH2 [Ac-FIIWCE-NH2]
result: 0.60

query: Same again, this time with Ac-IVIFFH-NH2 [Ac-IVIFFH-NH2]
result: 1.57
